assay_remarks: Pharmacokinetics in mice (plasma, LC-MS/MS)
Format: in vivo, mouse
stated_conditions: male, C57B/L6J, mouse, plasma, sc, 25 mg/kg
reported_endpoint: Cmax (ng/mL)
// units = ng/mL; emit number, no label

I am curious: what Cmax value has been reported for Ac-RGAGSIREAGGAFGKREQAEEERYFRAQSRE-NH2 [peptide of formula (I), CH3CO-[SEQ ID NO: 1]-NH2] ?
8290

---

assay_remarks: Pharmacokinetics in mice (plasma, LC-MS/MS)
Assay type: in vivo, mouse
stated_conditions: male, C57B/L6J, mouse, plasma, iv, 25 mg/kg, iv, read-out: MRT (mean residence time)
reported_endpoint: MRT (min)
// units = min; emit number, no label

I am curious: what MRT value has been reported for Ac-RGAGSIREAGGAFGKREQAEEERYFRAQSRE-NH2 [peptide of formula (I), CH3CO-[SEQ ID NO: 1]-NH2] ?
8.4

---

assay_remarks: Pharmacokinetics in mice (plasma, LC-MS/MS)
Format: in vivo, mouse
stated_conditions: male, C57B/L6J, mouse, plasma, iv, 25 mg/kg, iv, read-out: t1/2lbdz (elimination half-life) (converted)
Experimental: The peptide of formula (I) and the peptide of formula (II) were analyzed in mouse EDTA plasma using a validated assay involving trypsin proteolysis and the subsequent analysis of a signature peptide (SEQ ID NO: 3) by liquid chromatography-tandem mass spectrometry (LC-MS/MS). The working solution of unlabeled peptide (SEQ ID NO: 3, 1 mM) was serially diluted in water to obtain 7 standard solutions ranging 0.05-5 μM. […] Standard solutions were used to plot calibration curves for peptide quantification. […]
reported_endpoint: half-life (min)
// units = min; emit number, no label

I am curious: what half-life value has been reported for Ac-RGAGSIREAGGAFGKREQAEEERYFRAQSRE-NH2 [peptide of formula (I), CH3CO-[SEQ ID NO: 1]-NH2] ?
15.6

---

assay_remarks: Stability in plasma and serum (LC-HRMS)
Type: in vitro ADME, human and mouse
stated_conditions: EDTA plasma, 37° C., read-out: recovery of the peptide in plasma
reported_endpoint: recovery at 24 h, 200 μg/mL (%)
// units = %; emit number, no label

I am curious: what recovery at 24 h, 200 μg/mL value has been reported for Ac-RGAGSIREAGGAFGKREQAEEERYFRAQSRE-NH2 [peptide of formula (I), CH3CO-[SEQ ID NO: 1]-NH2] ?
10

---

assay_remarks: Pharmacokinetics in mice (plasma, LC-MS/MS)
Assay type: in vivo, mouse
stated_conditions: male, C57B/L6J, mouse, plasma, sc, 25 mg/kg, sc, read-out: t1/2lbdz (elimination half-life) (converted)
reported_endpoint: half-life
The answer consists of two parts: a number and, after it, its unit.

I am curious: what half-life value has been reported for Ac-RGAGSIREAGGAFGKREQAEEERYFRAQSRE-NH2 [peptide of formula (I), CH3CO-[SEQ ID NO: 1]-NH2] ?
12.6 min

---

assay_remarks: Pharmacokinetics in mice (plasma, LC-MS/MS)
Format: in vivo, mouse
stated_conditions: male, C57B/L6J, mouse, plasma, sc, 25 mg/kg
reported_endpoint: Tmax (min)
// units = min; emit number, no label

I am curious: what Tmax value has been reported for Ac-RGAGSIREAGGAFGKREQAEEERYFRAQSRE-NH2 [peptide of formula (I), CH3CO-[SEQ ID NO: 1]-NH2] ?
15

---

assay_remarks: Stability in plasma and serum (LC-HRMS)
Format: in vitro ADME, human and mouse
stated_conditions: serum, 37° C., read-out: recovery of the peptide in serum
reported_endpoint: recovery at 24 h, 200 μg/mL (%)
// units = %; emit number, no label

I am curious: what recovery at 24 h, 200 μg/mL value has been reported for Ac-RGAGSIREAGGAFGKREQAEEERYFRAQSRE-NH2 [peptide of formula (I), CH3CO-[SEQ ID NO: 1]-NH2] ?
30

---

assay_remarks: Pharmacokinetics in mice (plasma, LC-MS/MS)
Type: in vivo, mouse
stated_conditions: male, C57B/L6J, mouse, plasma, iv, 25 mg/kg, read-out: Cl (total plasma clearance) (converted)
reported_endpoint: clearance (mL/min/kg)
// units = mL/min/kg; emit number, no label

I am curious: what clearance value has been reported for Ac-RGAGSIREAGGAFGKREQAEEERYFRAQSRE-NH2 [peptide of formula (I), CH3CO-[SEQ ID NO: 1]-NH2] ?
31.7

---

assay_remarks: Pharmacokinetics in mice (plasma, LC-MS/MS)
Assay type: in vivo, mouse
stated_conditions: male, C57B/L6J, mouse, plasma, sc, 25 mg/kg, sc, read-out: MRT (mean residence time)
Procedure: The peptide of formula (I) and the peptide of formula (II) were analyzed in mouse EDTA plasma using a validated assay involving trypsin proteolysis and the subsequent analysis of a signature peptide (SEQ ID NO: 3) by liquid chromatography-tandem mass spectrometry (LC-MS/MS). The working solution of unlabeled peptide (SEQ ID NO: 3, 1 mM) was serially diluted in water to obtain 7 standard solutions ranging 0.05-5 μM. […] Standard solutions were used to plot calibration curves for peptide quantification. […]
reported_endpoint: MRT (min)
// units = min; emit number, no label

I am curious: what MRT value has been reported for Ac-RGAGSIREAGGAFGKREQAEEERYFRAQSRE-NH2 [peptide of formula (I), CH3CO-[SEQ ID NO: 1]-NH2] ?
33

---

assay_remarks: Pharmacokinetics in mice (plasma, LC-MS/MS)
Type: in vivo, mouse
stated_conditions: male, C57B/L6J, mouse, plasma, iv, 25 mg/kg
Description: The peptide of formula (I) and the peptide of formula (II) were analyzed in mouse EDTA plasma using a validated assay involving trypsin proteolysis and the subsequent analysis of a signature peptide (SEQ ID NO: 3) by liquid chromatography-tandem mass spectrometry (LC-MS/MS). The working solution of unlabeled peptide (SEQ ID NO: 3, 1 mM) was serially diluted in water to obtain 7 standard solutions ranging 0.05-5 μM. […] Standard solutions were used to plot calibration curves for peptide quantification. […]
reported_endpoint: AUC
The answer consists of two parts: a number and, after it, its unit.

I am curious: what AUC value has been reported for Ac-RGAGSIREAGGAFGKREQAEEERYFRAQSRE-NH2 [peptide of formula (I), CH3CO-[SEQ ID NO: 1]-NH2] ?
13300 ng·h/mL

---

assay_remarks: Pharmacokinetics in mice (plasma, LC-MS/MS)
Type: in vivo, mouse
stated_conditions: male, C57B/L6J, mouse, plasma, iv, 25 mg/kg, read-out: Vd (volume of distribution)
reported_endpoint: Vd
The answer consists of two parts: a number and, after it, its unit.

I am curious: what Vd value has been reported for Ac-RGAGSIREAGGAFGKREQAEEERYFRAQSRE-NH2 [peptide of formula (I), CH3CO-[SEQ ID NO: 1]-NH2] ?
0.7 L/kg
